System under test: Mitogen-activated protein kinase kinase kinase 9 (Homo sapiens)
Test conditions: at 10 µM
Experimental endpoint: residual activity (%)

O=[N+]([O-])c1ccc(-c2nc(-c3ccc(F)cc3)c(-c3ccncc3)[nH]2)cc1	83
O=C1NC(=O)/C(=C/c2ccc3c(c2)OC(F)(F)O3)S1	99
COc1cc2ncnc(Nc3ccc(NC(=O)c4ccccc4)cc3)c2cc1OC	22
Cc1ccc(S(=O)(=O)/C=C/C#N)cc1	97
Ic1cccc(CSc2nnc(-c3ccncc3)o2)c1	88
CN(C)CCCn1cc(C2=C(c3c[nH]c4ccccc34)C(=O)NC2=O)c2ccccc21	13
O=c1c2ccccc2[nH]c(=S)n1CCN1CCC(=C(c2ccc(F)cc2)c2ccc(F)cc2)CC1	101
COc1cc2ncnc(Nc3ccc(Oc4ccccc4)cc3)c2cc1OC	4
Cc1nc2cc3nc(-c4cccs4)cnc3cc2n1C	44
Cc1cncc2cccc(S(=O)(=O)N3CCCN(C(=O)CN)C[C@H]3C)c12	62
N#C/C(=C(\N)Sc1ccc(N)cc1)c1ccccc1C(F)(F)F	89
CCN(CC)CCCCN1c2ccccc2Oc2ccc(Cl)cc21	102
COc1ccc(C(=O)Nc2sc3c(c2C(N)=O)CCCC3)cc1OC	96
Nc1n[nH]c2nnc(-c3c(-c4ccccc4)nn4ccccc34)cc12	31
CN(C)c1ccc(/C=C2\C(=O)Nc3ccccc32)cc1	16
c1ccc(-c2n[nH]c3c2oc2ccccc23)cc1	39
COc1cc2ncnc(N3CCN(C(=O)Nc4ccc(Oc5ccccc5)cc4)CC3)c2cc1OC	91
O=Nc1c(-c2c(O)[nH]c3ccccc23)[nH]c2ccccc12	1
CCN(CC)C(=O)c1ccc(Nc2nc(OCC3CCCCC3)c3nc[nH]c3n2)cc1	1
CO[C@H]1C[C@@H]2CC[C@@H](C)[C@@](O)(O2)C(=O)C(=O)N2CCCC[C@H]2C(=O)O[C@H]([C@H](C)C[C@@H]2CC[C@@H](O)[C@H](OC)C2)CC(=O)[C@H](C)/C=C(\C)[C@@H](O)[C@@H](OC)C(=O)[C@H](C)C[C@H](C)/C=C/C=C/C=C/1C	106
